test system: spleen cell; test: Interferon-γ production of spleen cells stimulated by Con A (double antibody sandwich ELISA); assay type: cell-based; conditions: Table 1-1; sample 1 μg/mL; Con A 0.5 μg/mL; 24 hours; n = 3
Where no end group is shown, it is not given here.
measuredProperty: Concentration of IFN-γ (pg/mL)
Give just the numeric value; pg/mL need not be written.

- Ac-SDAAVDTSSEITTKDLKEKKEVVEEAEN-OH [Tα1, reference compound]: 1449.3
- Ac-SDAAVDTSSEITTKDLCEKKEVVEEAEN-OH [BMJBT005]: 1822.2
- Ac-SDAAVDTSSEITTKDLKEKKEVVEEAENC-NH2 [BMJBT009]: 1895.7
- Ac-[Cys^16(mPEG5000-MAL)]Tα1 (Ac-SDAAVDTSSEITTKDC(mPEG5000‑maleimide)KEKKEVVEEAEN; UniProt P06454 2-29, looked up, variant L16C) [BMJB016]: 1426.8

Pending substance:
Fill in reported Concentration of IFN-γ for this entry: Ac-[Cys^17(mPEG5000-MAL)]Tα1 (Ac-SDAAVDTSSEITTKDLC(mPEG5000‑maleimide)EKKEVVEEAEN; UniProt P06454 2-29, looked up, variant K17C) [BMJB017]
1048.9

----------
Quick reference: half-life of the listed items.
test: Half-life in liver homogenate (HPLC); assay type: in vitro ADME; settings: 37° C., sample 0.4 mg/mL or 0.8 mg/mL, read-out: t1/2 in liver homogenate (converted)
Give just the numeric value; h need not be written.

Reference set, count: 3
- Ac-SDAAVDTSSEITTKDLCEKKEVVEEAEN-OH [BMJBT005]: 2.8
- Ac-SDAAVDTSSEITTKDCKEKKEVVEEAEN-OH [BMJBT004]: 0.8
- Ac-SDAAVDTSSEITTKDLKEKKEVVEEAEN-OH [Tα1, reference compound]: 4.2

Fill in reported half-life for this entry: Ac-SDAACDTSSEITTKDLKEKKEVVEEAEN-OH [BMJBT001]
3.8

----------
Assay: Plasma concentration / pharmacokinetics in mouse (competitive ELISA)
Format: in vivo
Settings: 300 μg per mouse, injected peritoneally, parameters in 24 h, n = 3
Experimental: Coating antigen: Dilute Tα1 detection antigen stock solution to a final concentration of 2 μg/mL with coating solution, and add it into the wells of ELISA plate for 0.1 mL per well, and incubate at 4° C. for 5 days. Then wash the ELISA plate 3 times with washing buffer, each 0.2 mL/well and 3 min/time. Add 0.2 mL blocking buffer to each well, incubate for 1.5 hours at 37° C., wash plate 2 times by washing buffer, and spin dried. […]
Where no end group is shown, it is not given here.
measuredProperty: Cmax (µg/mL)
Give just the numeric value; µg/mL need not be written.

- BMJB020: PEG modification of Tα1 (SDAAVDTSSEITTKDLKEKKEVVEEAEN; ends and bridges not checked; also: PEG conjugate, site not given here; UniProt P06454 2-29, looked up): 0.172
- Ac-[Cys^16(mPEG5000-MAL)]Tα1 (Ac-SDAAVDTSSEITTKDC(mPEG5000‑maleimide)KEKKEVVEEAEN; UniProt P06454 2-29, looked up, variant L16C) [BMJB016]: 6.289
- BMJB015: PEG modification of Tα1, listed after BMJBT004 in Table 1-2 (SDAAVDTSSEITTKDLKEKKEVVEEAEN; ends and bridges not checked; also: PEG conjugate, site not given here; UniProt P06454 2-29, looked up): 5.082

Fill in reported Cmax for this entry: BMJB012: PEG modification of Tα1, listed after BMJBT001 in Tables 1-2 and 2-2 (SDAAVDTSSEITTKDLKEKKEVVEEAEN; not fully specified; ends and bridges not checked; also: PEG conjugate, site not given here; UniProt P06454 2-29, looked up)
0.348

Fill in reported Cmax for this entry: Ac-[Cys^17(mPEG5000-MAL)]Tα1 (Ac-SDAAVDTSSEITTKDLC(mPEG5000‑maleimide)EKKEVVEEAEN; UniProt P06454 2-29, looked up, variant K17C) [BMJB017]
11.980
